So I've got a bunch of molecules here, and I need their Melting temperature (Tm) shift values.
Target: STK3 Catalytic domain+SARAH (Homo sapiens, UniProt Q13188)
Construct: for 8, we also made a longer version containing one or more additional domains; His-tag; made in house; host or cells: Escherichia coli
Test: Differential Scanning Fluorimetry (DSF) Tm shift
Assay type: binding
Conditions: 2 µM protein, 10 µM inhibitor, average of 3 experiments, each in duplicate
Answers are plain numbers, in degrees Celcius.

> print(dat)
                                chem.smiles  data.value
1        NC(=O)Nc1sc(-c2ccc(F)cc2)cc1C(N)=O         1.6
2  CCN(CC)C(=O)c1ccc(Nc2nc(OCC3CCCCC3)c3[nH]cnc3n2)cc1         2.5
3  c1nc2nc(Nc3ccc(N4CCOCC4)cc3)nc(NC3CCCCC3)c2[nH]1         3.4

Melting temperature (Tm) shift lookup needed for CC(C)[C@H](CO)Nc1nc(Nc2cccc(Cl)c2)c2ncn(C(C)C)c2n1 , thanks.
1.0

====

Molecular target: FES Catalytic Domain+SH2 (Homo sapiens, UniProt P07332)
Construct: for 8, we also made a longer version containing one or more additional domains; His-tag; made in house; host or cells: Escherichia coli
Sequence (P07332 448-822 limits assumed): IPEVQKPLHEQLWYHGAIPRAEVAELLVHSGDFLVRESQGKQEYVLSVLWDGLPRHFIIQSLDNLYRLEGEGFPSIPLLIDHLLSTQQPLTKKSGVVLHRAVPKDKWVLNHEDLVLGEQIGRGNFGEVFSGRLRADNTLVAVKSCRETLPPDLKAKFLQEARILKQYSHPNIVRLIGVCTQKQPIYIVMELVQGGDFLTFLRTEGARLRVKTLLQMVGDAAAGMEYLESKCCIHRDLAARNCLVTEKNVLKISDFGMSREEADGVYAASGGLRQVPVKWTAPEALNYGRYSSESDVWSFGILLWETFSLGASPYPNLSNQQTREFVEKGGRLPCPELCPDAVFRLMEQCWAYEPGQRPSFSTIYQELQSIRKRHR
Experiment: Differential Scanning Fluorimetry (DSF) Tm shift
Assay type: binding
Conditions: 2 µM protein, 10 µM inhibitor, average of 3 experiments, each in duplicate
Observable: Melting temperature (Tm) shift (degrees Celcius)
Numbers only, in degrees Celcius.

> print(dat)
                                   molecule  data.value
1  CN[C@@H]1C[C@H]2O[C@@](C)([C@@H]1OC)n1c3ccccc3c3c4c(c5c6ccccc6n2c5c31)C(=O)N[C@@H]4O [UCN-01]         1.3
2  O=C1Nc2ccc(Cl)cc2C1=Cc1cc(Cl)c(O)c(Cl)c1 [PKR Inhibitor, Negative Control]         0.5
3  O=C(c1cc2cc(O)ccc2[nH]1)c1cc2cc(O)ccc2[nH]1 [Flt-3 Inhibitor II]         0.0

Switching to the query record.
Melting temperature (Tm) shift lookup needed for CCN(CC)C(=O)c1ccc(Nc2nc(OCC3CCCCC3)c3[nH]cnc3n2)cc1 [Cdk2 Inhibitor IV, NU6140] , thanks.
0.6

====

Target: STK3 Catalytic Domain (Homo sapiens)
Construct: For all of them, we expressed and purified the catalytic domain separately; His-tag; made in house; host or cells: Escherichia coli
Sequence (Q13188 27-278 limits assumed): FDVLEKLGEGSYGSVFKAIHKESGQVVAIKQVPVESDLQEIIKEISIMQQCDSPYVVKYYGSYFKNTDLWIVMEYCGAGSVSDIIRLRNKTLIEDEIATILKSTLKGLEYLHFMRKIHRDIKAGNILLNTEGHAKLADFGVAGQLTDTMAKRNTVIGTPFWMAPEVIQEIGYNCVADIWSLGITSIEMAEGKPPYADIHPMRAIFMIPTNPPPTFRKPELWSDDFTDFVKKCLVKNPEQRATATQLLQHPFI
Assay: Differential Scanning Fluorimetry (DSF) Tm shift
Type: binding
Details: 2 µM protein, 10 µM inhibitor, average of 3 experiments, each in duplicate
Give 1 when the value for Melting temperature (Tm) shift is at least 0.3 degrees Celcius. Give -1 when it is less.

> print(dat)
                                chem.smiles  category.label
1  CC(C)c1nn(-c2c(Cl)cccc2Cl)c2nc(Cc3ccc(OCCO)cc3)[nH]c(=O)c12               1

Check this molecule for Melting temperature (Tm) shift at or above 0.3 degrees Celcius: O.O=C1NCCc2[nH]c(-c3ccnc(-c4cnc5ccccc5c4)c3)cc21
-1

Would you mind doing N#Cc1cnc2cnc(NCc3cccnc3)cc2c1Nc1ccc(F)c(Cl)c1 as well?
-1

Would you mind doing COc1cc2ncnc(Nc3ccc(OCc4ccccc4)cc3)c2cc1OC as well?
-1

Would you mind doing Cc1cc(Nc2nc(-c3ccccc3)nc3ccccc23)n[nH]1 as well?
1

Would you mind doing N#Cc1c(-c2ccccc2)cc(-c2cc(Br)ccc2O)[nH]c1=O as well?
1

====

Molecular target: SRC Catalytic Domain (Homo sapiens, UniProt P12931)
Sequence (P12931 270-523 limits assumed): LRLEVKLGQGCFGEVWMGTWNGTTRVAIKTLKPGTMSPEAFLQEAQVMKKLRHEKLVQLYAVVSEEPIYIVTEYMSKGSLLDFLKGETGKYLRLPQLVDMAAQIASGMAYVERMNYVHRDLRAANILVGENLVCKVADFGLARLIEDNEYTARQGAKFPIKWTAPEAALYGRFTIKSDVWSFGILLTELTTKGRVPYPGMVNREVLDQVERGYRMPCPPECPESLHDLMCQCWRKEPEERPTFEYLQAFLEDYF
Assay: Differential Scanning Fluorimetry (DSF) Tm shift
Type: binding
Parameters: For all of them, we expressed and purified the catalytic domain separately; His-tag; made in house; host or cells: Escherichia coli
Conditions: 2 µM protein, 10 µM inhibitor, average of 3 experiments, each in duplicate
Observable: Melting temperature (Tm) shift (degrees Celcius)
One number for each entry, in degrees Celcius.

Reference set (5 entries):
> print(dat)
                                   compound                             system.tested  data.value
1  CN1C(=O)C(=C2Nc3ccccc3C2=NO)c2ccc(Br)cc21 [GSK-3 Inhibitor IX, Control, MeBIO]  SRC Catalytic Domain (Homo sapiens, UniProt P12931)         0.0
2  COc1cc2ncnc(Nc3ccc(Cl)cc3Cl)c2cc1OC [Ste11 MAPKKK Activation Inhibitor]  SRC Catalytic Domain (Homo sapiens, UniProt P12931)         0.5
3  O=C1NC(=O)c2c1c1c3ccccc3n3c1c1c2c2ccccc2n1C1CCC3O1 [SB 218078]  SRC Catalytic Domain (Homo sapiens, UniProt P12931)         1.9
4  CCn1cnc2c(Nc3cccc(Cl)c3)nc(N[C@H]3CCCC[C@H]3N)nc21 [Cdk1 Inhibitor, CGP74514A]  SRC Catalytic Domain (Homo sapiens, UniProt P12931)         1.2
5  O=C(c1ccc(Nc2nccc(-c3cc4ccccc4s3)n2)cc1)N1CCC(N2CCCC2)CC1 [IKK Inhibitor VII]  SRC Catalytic Domain (Homo sapiens, UniProt P12931)         0.6

Okay, here is my list. What is Melting temperature (Tm) shift for each of these?
1. O=C1NC(=O)C(c2c[nH]c3ccccc23)=C1c1c[nH]c2ccccc12 [Bisindolylmaleimide IV]
2. Cc1[nH]c(/C=C2\C(=O)Nc3ccc(S(=O)(=O)N(C)c4cccc(Cl)c4)cc32)c(C)c1C(=O)N1CCN(C)CC1 [Met Kinase Inhibitor]
3. CCCCc1c(-c2ccc(O)cc2)[nH]c2nccnc12 [Aloisine A, RP107, Aloisine A]
4. NC(=O)Nc1sc(-c2ccccc2)cc1C(N)=O [IKK-2 Inhibitor VI]

[0.3, 0.3, 1.5, 1.3]

Okay, here is my list. What is Melting temperature (Tm) shift for each of these?
1. O=C1Nc2ccc3ncsc3c2/C1=C/c1cnc[nH]1 [PKR Inhibitor]
2. Cc1cc(C=C2C(=O)C=CC2=O)cc(C)c1O [TX-1918]
3. Nc1cccc(-c2cc3c(Oc4cccc(O)c4)ncnc3[nH]2)c1 [GSK3b Inhibitor XII, TWS119]
4. CN(C)CCCn1cc(C2=C(c3c[nH]c4ccccc34)C(=O)NC2=O)c2ccccc21 [Bisindolylmaleimide I]
5. O=C1Nc2ccccc2C1=C1Nc2ccccc2C1=NOCCC(O)CO (stereo not shown) [Indirubin Derivative E804]
6. COc1cc2nccc(Oc3ccc(NC(=S)NC(=O)c4ccccc4C)cc3)c2cc1OC [PDGF RTK Inhibitor]

1: 0.7; 2: 0.0; 3: 2.6; 4: 0.4; 5: 3.1; 6: 5.9

Melting temperature (Tm) shift lookup needed for c1cc(-c2cnn3cc(-c4ccc(OCCN5CCCCC5)cc4)cnc23)ccn1 [AMPK Inhibitor, Compound C] , thanks.
0.5

====

Target: PAK4 Catalytic Domain+PBD (Homo sapiens)
Construct: for 8, we also made a longer version containing one or more additional domains; His-tag; made in house; host or cells: Escherichia coli
Sequence (O96013 whole entry, the tested form may be a part): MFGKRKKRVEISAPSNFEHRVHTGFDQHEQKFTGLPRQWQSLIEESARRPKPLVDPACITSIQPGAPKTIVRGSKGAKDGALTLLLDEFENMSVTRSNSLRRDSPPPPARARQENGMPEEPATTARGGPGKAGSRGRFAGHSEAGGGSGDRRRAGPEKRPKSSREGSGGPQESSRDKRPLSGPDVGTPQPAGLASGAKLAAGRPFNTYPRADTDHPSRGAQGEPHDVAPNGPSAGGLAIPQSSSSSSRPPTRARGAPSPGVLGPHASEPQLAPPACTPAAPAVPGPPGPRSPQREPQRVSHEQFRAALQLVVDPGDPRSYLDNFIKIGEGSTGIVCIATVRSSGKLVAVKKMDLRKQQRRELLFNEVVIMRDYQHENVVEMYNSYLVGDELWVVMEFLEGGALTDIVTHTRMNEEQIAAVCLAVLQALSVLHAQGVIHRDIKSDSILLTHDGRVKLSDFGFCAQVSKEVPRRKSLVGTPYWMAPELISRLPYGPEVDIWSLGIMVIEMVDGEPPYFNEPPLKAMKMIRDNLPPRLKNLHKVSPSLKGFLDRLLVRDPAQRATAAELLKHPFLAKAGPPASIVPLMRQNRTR
Experiment: Differential Scanning Fluorimetry (DSF) Tm shift
Type: binding
Settings: 2 µM protein, 10 µM inhibitor, average of 3 experiments, each in duplicate
Observable: Melting temperature (Tm) shift (degrees Celcius)
Give bare numbers, in degrees Celcius.

Reference set (6 entries):
> print(dat)
                                   molecule                      observable       scale.unit  data.value
1  N#Cc1cnc2cnc(NCc3cccnc3)cc2c1Nc1ccc(F)c(Cl)c1 [Tpl2 Kinase Inhibitor]  Melting temperature (Tm) shift  degrees Celcius         0.6
2  O=C1Nc2ccccc2C1=C1Nc2ccccc2C1=NOCCC(O)CO (centres unmarked) [Indirubin Derivative E804]  Melting temperature (Tm) shift  degrees Celcius         2.1
3  O=C1NC(=O)c2c1c1c3ccccc3[nH]c1c1[nH]c3cc(Br)ccc3c21 [Cdk4 Inhibitor]  Melting temperature (Tm) shift  degrees Celcius         0.4
4  O.O=C1NCCc2[nH]c(-c3ccnc(-c4cnc5ccccc5c4)c3)cc21 [MK-2 Inhibitor III]  Melting temperature (Tm) shift  degrees Celcius         0.1
5  N#Cc1c(-c2ccccc2)cc(-c2cc(Br)ccc2O)[nH]c1=O [PIM1 Kinase Inhibitor II]  Melting temperature (Tm) shift  degrees Celcius         0.5
6  O=C1Cc2c([nH]c3ccc([N+](=O)[O-])cc23)-c2ccccc2N1 [Alsterpaullone]  Melting temperature (Tm) shift  degrees Celcius         0.3

Okay, here is my list. What is Melting temperature (Tm) shift for each of these?
1. O=C(c1cc2cc(O)ccc2[nH]1)c1cc2cc(O)ccc2[nH]1 [Flt-3 Inhibitor II]
2. O=C1Cc2c([nH]c3ccc(Br)cc23)-c2ccccc2N1 [Kenpaullone]

[0.9, 3.6]
